Assay name: Volume of distribution at steady state in Sprague-Dawley rat at 1 mg/kg, iv measured for 24 hrs by LC-MS/MS analysis
Assay type: ADME, organism-based
Measurement conditions: in vivo, read-out: Vdss
Each entry below lists one item and its recorded Vd value.
Give just the numeric value; L/kg need not be written.

[[record]]
smiles_text = "[2H]C([2H])([2H])C1(C([2H])([2H])[2H])Cn2nc(-c3ccc(F)cn3)c(-c3ccnc4[nH]ncc34)c2CO1"
assay_endpoint = "Vd"
reported_value = 1


Name the reported Vd value associated with the compound Cn1cc(-c2ccnc3[nH]ccc23)c(-c2ccc(F)cn2)n1
0.6

Name the reported Vd value associated with the compound CC1(C)Cn2nc(-c3ccc(F)cn3)c(-c3ccnc4[nH]ncc34)c2CO1
1.2

Name the reported Vd value associated with the compound Cn1cc(-c2ccnc3[nH]ncc23)c(-c2ccc(F)cc2)n1
1.6

* * *

Assay target: TRAF2 and NCK-interacting protein kinase (Homo sapiens)
Sequence (Q9UKE5 whole entry, looked up): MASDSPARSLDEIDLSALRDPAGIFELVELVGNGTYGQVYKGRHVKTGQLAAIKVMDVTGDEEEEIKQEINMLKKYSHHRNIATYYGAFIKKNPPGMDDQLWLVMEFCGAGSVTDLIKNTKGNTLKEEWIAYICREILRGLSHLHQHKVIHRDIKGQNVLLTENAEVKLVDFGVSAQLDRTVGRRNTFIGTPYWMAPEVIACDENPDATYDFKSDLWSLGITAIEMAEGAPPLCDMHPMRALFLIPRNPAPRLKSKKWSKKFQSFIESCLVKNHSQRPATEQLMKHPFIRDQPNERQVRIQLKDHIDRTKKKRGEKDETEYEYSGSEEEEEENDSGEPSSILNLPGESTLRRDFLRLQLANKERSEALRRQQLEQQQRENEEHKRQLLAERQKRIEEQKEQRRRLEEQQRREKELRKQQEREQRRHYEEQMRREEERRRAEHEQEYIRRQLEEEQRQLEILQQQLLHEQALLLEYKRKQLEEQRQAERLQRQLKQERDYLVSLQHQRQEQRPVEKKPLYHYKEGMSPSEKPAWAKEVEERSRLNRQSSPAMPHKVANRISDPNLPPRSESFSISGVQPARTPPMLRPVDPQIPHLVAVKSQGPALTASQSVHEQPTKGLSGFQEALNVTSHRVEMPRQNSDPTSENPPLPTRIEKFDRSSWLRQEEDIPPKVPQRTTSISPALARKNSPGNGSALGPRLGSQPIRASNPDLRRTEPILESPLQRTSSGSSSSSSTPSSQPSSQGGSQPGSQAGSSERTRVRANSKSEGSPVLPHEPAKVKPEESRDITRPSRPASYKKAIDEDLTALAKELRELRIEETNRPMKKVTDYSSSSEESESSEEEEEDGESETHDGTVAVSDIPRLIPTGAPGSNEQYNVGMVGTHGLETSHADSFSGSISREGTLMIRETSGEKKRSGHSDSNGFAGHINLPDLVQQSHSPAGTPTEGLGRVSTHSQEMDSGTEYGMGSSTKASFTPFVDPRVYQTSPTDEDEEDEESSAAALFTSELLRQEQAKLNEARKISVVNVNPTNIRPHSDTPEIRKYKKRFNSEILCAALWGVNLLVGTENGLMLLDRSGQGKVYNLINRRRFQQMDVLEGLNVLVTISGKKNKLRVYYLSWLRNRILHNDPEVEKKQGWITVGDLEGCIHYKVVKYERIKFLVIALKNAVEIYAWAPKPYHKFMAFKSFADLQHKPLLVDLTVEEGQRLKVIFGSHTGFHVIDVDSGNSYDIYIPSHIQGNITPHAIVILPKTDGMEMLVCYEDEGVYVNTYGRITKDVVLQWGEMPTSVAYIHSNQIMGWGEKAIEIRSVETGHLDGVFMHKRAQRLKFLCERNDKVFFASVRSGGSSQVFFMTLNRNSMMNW
Assay name: Inhibition of TNIK (unknown origin) at 1 uM by radiometric assay relative to control
Each entry below lists one item and its recorded inhibition value.
Give just the numeric value; % need not be written.

Name the reported inhibition value associated with the molecule Cn1cc(-c2c(C#N)cnc3[nH]ccc23)c(-c2ccc(F)cn2)n1
88

* * *

Assay name: Intrinsic clearance in dog liver microsomes at 1 uM preincubated for 5 mins followed by NADPH addition measured for 60 mins by LC-MS/MS analysis
Type: ADME, Canis lupus familiaris, Microsome
Measurement conditions: time 65 min, read-out: CLH
Assay endpoint: microsomal CLint at 1 µM

[[record]]
smiles_text = "[2H]C([2H])([2H])C1(C([2H])([2H])[2H])Cn2nc(-c3ccc(F)cn3)c(-c3ccnc4[nH]ncc34)c2CO1"
reported_value = "< 7.7 µL/min/mg"


Please find the next molecule below.
Name the reported microsomal CLint at 1 µM value associated with the molecule CC1(C)Cn2nc(-c3ccc(F)cn3)c(-c3ccnc4[nH]ncc34)c2CO1
< 7.7 µL/min/mg

* * *

Each entry below lists one item and its recorded solubility value.
Assay name: Solubility of compound at pH 2 measured for 2 to 5 days by HPLC analysis
Format: physicochemical
Measurement conditions: buffer, time 2-5 day

Name the reported solubility value associated with the molecule Cn1cc(-c2ccnc3[nH]ccc23)c(-c2ccc(F)cn2)n1
> 400 µM

Name the reported solubility value associated with the molecule Cn1cc(-c2ccnc3[nH]ccc23)c(-c2ccc(F)cc2)n1
> 400 µM

Name the reported solubility value associated with the molecule Cn1cc(-c2ccnc3[nH]ncc23)c(-c2ccc(F)cc2)n1
112 µM

* * *

Assay name: Oral bioavailability in Sprague-Dawley rat at 5 mg/kg measured for 24 hrs by LC-MS/MS analysis
Type: ADME, organism-based
Measurement conditions: in vivo
Each entry below lists one item and its recorded bioavailability value.
Give just the numeric value; % need not be written.

Example results:
[[record]]
smiles_text = "[2H]C([2H])([2H])C1(C([2H])([2H])[2H])Cn2nc(-c3ccc(F)cn3)c(-c3ccnc4[nH]ncc34)c2CO1"
assay_endpoint = "bioavailability"
reported_value = 85

[[record]]
smiles_text = "Cn1cc(-c2ccnc3[nH]ncc23)c(-c2ccc(F)cc2)n1"
assay_endpoint = "bioavailability"
reported_value = 70

[[record]]
smiles_text = "CC1(C)Cn2nc(-c3ccc(F)cn3)c(-c3ccnc4[nH]ncc34)c2CO1"
assay_endpoint = "bioavailability"
reported_value = 19


Name the reported bioavailability value associated with the compound Cn1cc(-c2ccnc3[nH]ccc23)c(-c2ccc(F)cn2)n1
32

Just for reference, ChEMBL document CHEMBL5335866 is where these values come from.
